- System: SF-268 CNS
- ASSAY TEXT: NCI tumour cell line growth inhibition, 48 h; in the data active means GI50 below about 0.43 µM; inactive means the rest
Please answer using one outcome listed in active, inactive

Illustrative cases are given below, each with its answer.
| COMPOUND | QUALITATIVE LABEL |
| --- | --- |
| S=c1ssnc1-c1cc2ccccc2o1 | inactive |
| NC(=NCCCCCCN=C(N)/N=C(\N)Nc1ccc(Cl)cc1)/N=C(\N)Nc1ccc(Cl)cc1 | inactive |
| CC[C@H](C)[C@H](NC(=O)[C@H]1CCCCN1C)C(=O)N(C)[C@H](CCc1nc(C(=O)N[C@@H](Cc2ccccc2)C[C@H](C)C(=O)O)cs1)C(C)C | active |
| COC(=O)c1c(C)nc(C)c2c1C(=O)C(Br)=C(NCc1ccccc1)C2=O | inactive |

Prompt: Per the records of this test, what outcome belongs to CC1(C)N=C(N)N=C(N)N1c1ccc(CCCC(=O)Nc2ccc(S(=O)(=O)F)cc2)cc1 ?
Completion: inactive

Prompt: Per the records of this test, what outcome belongs to [Br][Pb]([c]1ccccc1)([c]1ccccc1)[c]1ccccc1 ?
Completion: active

---

TGI listing for selected compounds.
- Tested on: MALME-3M melanoma
- ASSAY TEXT: NCI tumour cell line growth inhibition, 48 h
Please reply with the bare figure in µM and do not write the unit itself.

Example entries begin here.
| MOL | READOUT TYPE | EXPERIMENTAL VALUE |
| --- | --- | --- |
| Brc1ccc2[nH]c3c(C4=NCCC4)nccc3c2c1 | TGI | 16.1 |
| OCCc1ccsc1-c1sc(-c2cc(CCO)c(-c3sc(-c4cc(CCO)c(-c5sccc5CCO)s4)cc3CCO)s2)cc1CCO | TGI | 2.36 |
| O=C(/C=C/c1ccccc1)c1ccc(Cl)cc1Cl | TGI | 46.1 |

Shifting focus to the compound that follows.
Prompt: Report measured TGI; entry is CNC(=O)CCN1CCN(CC/C=C2\c3ccccc3Sc3ccc(Cl)cc32)CC1
Completion: 6.16

---

- System: OVCAR-3 ovarian
- ASSAY TEXT: NCI tumour cell line growth inhibition, 48 h
READOUT TYPE: log10(TGI) (log10 of the value in µM)
Plainly stated, the numbers are log10 of TGI given in µM.

Example entries begin here.
| COMPOUND | SUBJECT OF TEST | READOUT TYPE | EXPERIMENTAL VALUE |
| --- | --- | --- | --- |
| CCCN1C(=O)/C(=C/c2ccc(SC(F)(F)F)cc2)SC1=Nc1ccc(OC)cc1 | OVCAR-3 ovarian | log10(TGI) | 1.49 |
| CCN(CC)CCOC(COc1cc(C)cc(C)c1)COc1cc(C)cc(C)c1 | OVCAR-3 ovarian | log10(TGI) | 1.11 |
| CCCCNc1ncnc2c1cnn2-c1ccccc1 | OVCAR-3 ovarian | log10(TGI) | 0.71 |
| Nc1nc(SCc2ccccc2CCl)c2[nH]cnc2n1 | OVCAR-3 ovarian | log10(TGI) | 1.46 |
| CC(=O)Oc1ccc2cc(Oc3cc(Cl)c(Cl)cc3Cl)c(=O)oc2c1 | OVCAR-3 ovarian | log10(TGI) | 1.50 |
| Nc1ccc(CC[C@H]2CCC/C=C/[C@@H]3C[C@H](O)C[C@H]3[C@H](O)/C=C/C(=O)O2)cc1 | OVCAR-3 ovarian | log10(TGI) | -1.11 |

Prompt: Report measured log10(TGI); entry is O=c1c(-c2nc3ccccc3c3ccccc3c2=O)nc2ccccc2c2ccccc12
Completion: 1.99

Prompt: Report measured log10(TGI); entry is O=C(Nc1cccc(-n2ccc3c(NC(=O)c4ccccc4)ncnc32)c1)Nc1ccc(Cl)c(C(F)(F)F)c1
Completion: 0.95
